# ASSAY_CONTEXT: in PEG-400, 293.15 K
ENDPOINT_NAME: solubility (mole fraction)

{"SMI": "CC(=O)Oc1ccc(C(c2ccc(OC(C)=O)cc2)c2ccccn2)cc1", "ENDPOINT_NAME": "solubility (mole fraction)", "MEAS_VALUE": 0.0154}

====

# ASSAY_CONTEXT: in DMF, 303.15 K

{"SMI": "CC(=O)Oc1ccc(C(c2ccc(OC(C)=O)cc2)c2ccccn2)cc1", "solubility (mole fraction)": 0.0561}

====

# ASSAY_CONTEXT: in n-butanol, 293.15 K
ENDPOINT_NAME: solubility (mole fraction)

{"SMI": "CC(=O)Oc1ccc(C(c2ccc(OC(C)=O)cc2)c2ccccn2)cc1", "MEAS_VALUE": 0.000537}
